test: Pharmacokinetics of pimasertib (plasma concentrations) in combination; format: in vivo, human; conditions: human, plasma, oral, DL2b SAR405838 300 mg QD + pimasertib 45 mg BID; C1D2; read-out: Pimasertib AUC0–12, mean ± SD

mol: O=C(NC[C@H](O)CO)c1ccncc1Nc1ccc(I)cc1F
AUC(0-t): 684 ng·h/mL

----------
Test: Pharmacokinetics of pimasertib (plasma concentrations) in combination
Type: in vivo, human
Conditions: human, plasma, oral, DL2b SAR405838 300 mg QD + pimasertib 45 mg BID; C1D1; read-out: Pimasertib t1/2 (converted)
From the text: Blood samples were collected on Days 1 (for pimasertib only), 2, 3, 8 and 15 of Cycle 1, on Days 1 and 2 of Cycle 2, and on Day 1 of Cycles 3 and 4, to determine the whole-blood and plasma concentrations of SAR405838 and pimasertib, respectively.

compound: O=C(NC[C@H](O)CO)c1ccncc1Nc1ccc(I)cc1F [pimasertib]
unit spec: h
half-life: 4.71

----------
test: Pharmacokinetics of pimasertib (plasma concentrations) in combination; format: in vivo, human; details: human, plasma, oral, DL3a SAR405838 300 mg QD + pimasertib 60 mg QD; C1D1; read-out: Pimasertib AUC0–12, mean ± SD

mol: O=C(NC[C@H](O)CO)c1ccncc1Nc1ccc(I)cc1F
AUC(0-t): 935 ng·h/mL

----------
experiment: Pharmacokinetics of pimasertib (plasma concentrations) in combination; format: in vivo, human; conditions: human, plasma, oral, DL2a SAR405838 200 mg QD + pimasertib 60 mg QD; C1D1; read-out: Pimasertib t1/2 (converted)
metric name: half-life (h)

mol: O=C(NC[C@H](O)CO)c1ccncc1Nc1ccc(I)cc1F
unit spec: h
measurement: 5.38

----------
assay: Pharmacokinetics of pimasertib (plasma concentrations) in combination; assay type: in vivo, human; conditions: human, plasma, oral, DL3a SAR405838 300 mg QD + pimasertib 60 mg QD; C1D2; read-out: Pimasertib AUC0–12, mean ± SD

mol: O=C(NC[C@H](O)CO)c1ccncc1Nc1ccc(I)cc1F
AUC(0-t), ng·h/mL: 917

----------
test: Pharmacokinetics of SAR405838 (whole-blood concentrations) in combination; type: in vivo, human; settings: human, whole blood, oral, DL1 SAR405838 200 mg QD + pimasertib 45 mg BID; C2D1; read-out: SAR405838 AUC0–24, mean ± SD

compound: CC(C)(C)C[C@@H]1N[C@@H](C(=O)N[C@H]2CC[C@H](O)CC2)[C@H](c2cccc(Cl)c2F)[C@]12C(=O)Nc1cc(Cl)ccc12 [SAR405838]
unit spec: ng·h/mL
AUC(0-t): 14600

----------
test: Pharmacokinetics of pimasertib (plasma concentrations) in combination; type: in vivo, human; details: human, plasma, oral, DL1 SAR405838 200 mg QD + pimasertib 45 mg BID; C1D2; read-out: Pimasertib Cmax, mean ± SD

mol: O=C(NC[C@H](O)CO)c1ccncc1Nc1ccc(I)cc1F
unit spec: ng/mL
Cmax: 200

----------
assay: Pharmacokinetics of SAR405838 (whole-blood concentrations) in combination; type: in vivo, human; conditions: human, whole blood, oral, DL3a SAR405838 300 mg QD + pimasertib 60 mg QD; C1D2; read-out: SAR405838 AUC0–24, mean ± SD

compound: CC(C)(C)C[C@@H]1N[C@@H](C(=O)N[C@H]2CC[C@H](O)CC2)[C@H](c2cccc(Cl)c2F)[C@]12C(=O)Nc1cc(Cl)ccc12 [SAR405838]
AUC(0-t) [ng·h/mL]: 21400

----------
assay: Pharmacokinetics of SAR405838 (whole-blood concentrations) in combination; assay type: in vivo, human; conditions: human, whole blood, oral, DL2b SAR405838 300 mg QD + pimasertib 45 mg BID; C1D2; read-out: SAR405838 AUC0–24, mean ± SD

mol: CC(C)(C)C[C@@H]1N[C@@H](C(=O)N[C@H]2CC[C@H](O)CC2)[C@H](c2cccc(Cl)c2F)[C@]12C(=O)Nc1cc(Cl)ccc12
AUC(0-t) (ng·h/mL): 16300

----------
experiment: Pharmacokinetics of SAR405838 (whole-blood concentrations) in combination; format: in vivo, human; details: human, whole blood, oral, DL2b SAR405838 300 mg QD + pimasertib 45 mg BID; C1D2; read-out: SAR405838 tmax, median (range)

mol: CC(C)(C)C[C@@H]1N[C@@H](C(=O)N[C@H]2CC[C@H](O)CC2)[C@H](c2cccc(Cl)c2F)[C@]12C(=O)Nc1cc(Cl)ccc12
unit spec: h
Tmax: 3

----------
test: Pharmacokinetics of pimasertib (plasma concentrations) in combination; assay type: in vivo, human; conditions: human, plasma, oral, DL1 SAR405838 200 mg QD + pimasertib 45 mg BID; C2D1; read-out: Pimasertib AUC0–12, mean ± SD
metric name: AUC(0-t)

mol: O=C(NC[C@H](O)CO)c1ccncc1Nc1ccc(I)cc1F
metric name: AUC(0-t)
measurement: 862 ng·h/mL

----------
Assay: Pharmacokinetics of pimasertib (plasma concentrations) in combination
Type: in vivo, human
Settings: human, plasma, oral, DL2a SAR405838 200 mg QD + pimasertib 60 mg QD; C1D1; read-out: Pimasertib Cmax, mean ± SD
From the text: Blood samples were collected on Days 1 (for pimasertib only), 2, 3, 8 and 15 of Cycle 1, on Days 1 and 2 of Cycle 2, and on Day 1 of Cycles 3 and 4, to determine the whole-blood and plasma concentrations of SAR405838 and pimasertib, respectively.
metric name: Cmax (ng/mL)

mol: O=C(NC[C@H](O)CO)c1ccncc1Nc1ccc(I)cc1F
metric name: Cmax
measurement: 301

----------
test: Pharmacokinetics of pimasertib (plasma concentrations) in combination; format: in vivo, human; conditions: human, plasma, oral, DL1 SAR405838 200 mg QD + pimasertib 45 mg BID; C1D1; read-out: Pimasertib Cmax, mean ± SD

compound: O=C(NC[C@H](O)CO)c1ccncc1Nc1ccc(I)cc1F [pimasertib]
Cmax (ng/mL): 218

----------
experiment: Pharmacokinetics of SAR405838 (whole-blood concentrations) in combination; format: in vivo, human; conditions: human, whole blood, oral, DL1 SAR405838 200 mg QD + pimasertib 45 mg BID; C2D1; read-out: SAR405838 Cmax, mean ± SD

molecule: CC(C)(C)C[C@@H]1N[C@@H](C(=O)N[C@H]2CC[C@H](O)CC2)[C@H](c2cccc(Cl)c2F)[C@]12C(=O)Nc1cc(Cl)ccc12 [SAR405838]
unit spec: ng/mL
Cmax: 1250

----------
assay: Pharmacokinetics of pimasertib (plasma concentrations) in combination; assay type: in vivo, human; details: human, plasma, oral, DL3a SAR405838 300 mg QD + pimasertib 60 mg QD; C1D1; read-out: Pimasertib Cmax, mean ± SD
metric name: Cmax (ng/mL)

mol: O=C(NC[C@H](O)CO)c1ccncc1Nc1ccc(I)cc1F
unit spec: ng/mL
measurement: 221

----------
test: Pharmacokinetics of SAR405838 (whole-blood concentrations) in combination; format: in vivo, human; settings: human, whole blood, oral, DL2b SAR405838 300 mg QD + pimasertib 45 mg BID; C1D2; read-out: SAR405838 t1/2 (converted)

compound: CC(C)(C)C[C@@H]1N[C@@H](C(=O)N[C@H]2CC[C@H](O)CC2)[C@H](c2cccc(Cl)c2F)[C@]12C(=O)Nc1cc(Cl)ccc12 [SAR405838]
half-life / h: 15.5

----------
assay: Pharmacokinetics of SAR405838 (whole-blood concentrations) in combination; type: in vivo, human; conditions: human, whole blood, oral, DL1 SAR405838 200 mg QD + pimasertib 45 mg BID; C1D2; read-out: SAR405838 Cmax, mean ± SD
metric name: Cmax (ng/mL)

mol: CC(C)(C)C[C@@H]1N[C@@H](C(=O)N[C@H]2CC[C@H](O)CC2)[C@H](c2cccc(Cl)c2F)[C@]12C(=O)Nc1cc(Cl)ccc12
measurement: 1570

----------
test: Pharmacokinetics of SAR405838 (whole-blood concentrations) in combination; format: in vivo, human; settings: human, whole blood, oral, DL3a SAR405838 300 mg QD + pimasertib 60 mg QD; C2D1; read-out: SAR405838 t1/2 (converted)

mol: CC(C)(C)C[C@@H]1N[C@@H](C(=O)N[C@H]2CC[C@H](O)CC2)[C@H](c2cccc(Cl)c2F)[C@]12C(=O)Nc1cc(Cl)ccc12
half-life (h): 14.9

----------
assay: Pharmacokinetics of pimasertib (plasma concentrations) in combination; type: in vivo, human; settings: human, plasma, oral, DL3a SAR405838 300 mg QD + pimasertib 60 mg QD; C1D2; read-out: Pimasertib Cmax, mean ± SD

mol: O=C(NC[C@H](O)CO)c1ccncc1Nc1ccc(I)cc1F
Cmax / ng/mL: 200

----------
assay: Pharmacokinetics of SAR405838 (whole-blood concentrations) in combination; format: in vivo, human; settings: human, whole blood, oral, DL1 SAR405838 200 mg QD + pimasertib 45 mg BID; C1D2; read-out: SAR405838 AUC0–24, mean ± SD

compound: CC(C)(C)C[C@@H]1N[C@@H](C(=O)N[C@H]2CC[C@H](O)CC2)[C@H](c2cccc(Cl)c2F)[C@]12C(=O)Nc1cc(Cl)ccc12 [SAR405838]
AUC(0-t), ng·h/mL: 19300
